Below is a list of entries, each paired with its recorded OD 490/630 nm value.
- Target Or System: T1, full-length recombinant human PAD4 (human, UniProt Q9UM07 1-663)
- T1 construct: Full-length recombinant; also called peptidylarginine deiminase 4
- T1 sequence (Q9UM07 whole entry): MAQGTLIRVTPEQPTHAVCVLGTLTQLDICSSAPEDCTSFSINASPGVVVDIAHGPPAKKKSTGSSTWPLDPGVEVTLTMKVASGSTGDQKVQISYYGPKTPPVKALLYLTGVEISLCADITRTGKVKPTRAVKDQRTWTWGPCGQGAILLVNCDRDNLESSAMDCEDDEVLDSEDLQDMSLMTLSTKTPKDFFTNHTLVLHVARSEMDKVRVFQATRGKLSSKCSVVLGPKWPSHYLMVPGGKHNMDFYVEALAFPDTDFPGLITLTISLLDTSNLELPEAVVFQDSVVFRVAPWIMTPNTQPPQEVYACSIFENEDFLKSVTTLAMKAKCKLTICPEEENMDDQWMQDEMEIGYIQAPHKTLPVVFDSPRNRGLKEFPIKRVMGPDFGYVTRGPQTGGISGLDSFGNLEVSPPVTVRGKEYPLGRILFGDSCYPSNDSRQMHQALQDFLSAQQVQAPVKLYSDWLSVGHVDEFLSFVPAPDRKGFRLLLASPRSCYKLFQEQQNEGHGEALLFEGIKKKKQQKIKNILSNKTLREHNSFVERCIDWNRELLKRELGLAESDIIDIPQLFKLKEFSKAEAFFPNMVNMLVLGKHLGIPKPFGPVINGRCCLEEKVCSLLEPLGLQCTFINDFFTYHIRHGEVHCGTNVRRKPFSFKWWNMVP
- Protocol Summary: ELISA, coated human PAD4; antibody 0.25 ug/mL
Number, no unit, nothing else.

Which OD 490/630 nm is reported for this binder? H7 (antibody, V domains shown, Chicken variable regions in a mouse chimeric antibody (IgG1); also called anti-PAD4 antibody H7) VH: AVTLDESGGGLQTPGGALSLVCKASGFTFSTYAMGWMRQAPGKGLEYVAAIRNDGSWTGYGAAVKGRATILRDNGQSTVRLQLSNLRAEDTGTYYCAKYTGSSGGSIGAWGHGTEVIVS VL: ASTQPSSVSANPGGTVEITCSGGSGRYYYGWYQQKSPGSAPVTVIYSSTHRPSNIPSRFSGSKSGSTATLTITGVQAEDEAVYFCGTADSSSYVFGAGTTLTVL
2.11

Given the binder A11 (antibody, V domains shown, Chicken variable regions in a mouse chimeric antibody (IgG1); also called anti-PAD4 antibody A11) VH: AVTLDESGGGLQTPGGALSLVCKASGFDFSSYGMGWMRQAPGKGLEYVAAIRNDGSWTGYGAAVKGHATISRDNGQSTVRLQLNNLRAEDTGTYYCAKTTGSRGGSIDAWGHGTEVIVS VL: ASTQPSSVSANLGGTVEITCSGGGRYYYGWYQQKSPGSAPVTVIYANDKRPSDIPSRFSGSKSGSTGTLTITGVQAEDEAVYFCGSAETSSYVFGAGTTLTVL , what is its reported OD 490/630 nm?
2.11

Sample G9 (antibody, V domains shown, Chicken variable regions in a mouse chimeric antibody (IgG1); also called anti-PAD4 antibody G9) VH: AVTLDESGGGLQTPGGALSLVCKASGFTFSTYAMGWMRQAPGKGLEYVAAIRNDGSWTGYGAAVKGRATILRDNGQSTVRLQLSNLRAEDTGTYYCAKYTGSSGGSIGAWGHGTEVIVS VL: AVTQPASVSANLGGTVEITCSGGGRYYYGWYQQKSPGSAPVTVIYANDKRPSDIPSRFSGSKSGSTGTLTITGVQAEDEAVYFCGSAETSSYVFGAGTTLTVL — what was its OD 490/630 nm?
2.08

What value of OD 490/630 nm has been reported for the following binder? G8 (antibody, V domains shown, Chicken variable regions in a mouse chimeric antibody (IgG1); also called anti-PAD4 antibody G8) VH: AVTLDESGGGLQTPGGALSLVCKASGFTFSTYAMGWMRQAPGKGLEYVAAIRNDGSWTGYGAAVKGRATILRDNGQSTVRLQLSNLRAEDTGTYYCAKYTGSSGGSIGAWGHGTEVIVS VL: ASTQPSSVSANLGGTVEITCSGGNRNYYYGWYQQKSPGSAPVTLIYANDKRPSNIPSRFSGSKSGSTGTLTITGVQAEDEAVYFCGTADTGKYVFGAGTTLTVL
2.1

So what's the measured OD 490/630 nm for this one? G6 (antibody, V domains shown, Chicken variable regions in a mouse chimeric antibody (IgG1); also called anti-PAD4 antibody G6) VH: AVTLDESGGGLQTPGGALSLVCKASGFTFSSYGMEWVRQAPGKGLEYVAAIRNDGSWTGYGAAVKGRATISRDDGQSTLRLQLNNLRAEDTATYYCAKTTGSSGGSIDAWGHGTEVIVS VL: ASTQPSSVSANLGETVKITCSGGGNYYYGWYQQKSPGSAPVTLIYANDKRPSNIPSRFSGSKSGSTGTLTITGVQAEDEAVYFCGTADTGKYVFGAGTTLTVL
2.07

Name the reported OD 490/630 nm value associated with the binder E9 (antibody, V domains shown, Chicken variable regions in a mouse chimeric antibody (IgG1); also called anti-PAD4 antibody E9) VH: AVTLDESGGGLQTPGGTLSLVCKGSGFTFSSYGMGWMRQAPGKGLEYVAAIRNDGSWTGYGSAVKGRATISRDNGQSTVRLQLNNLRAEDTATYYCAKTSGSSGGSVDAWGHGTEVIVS VL: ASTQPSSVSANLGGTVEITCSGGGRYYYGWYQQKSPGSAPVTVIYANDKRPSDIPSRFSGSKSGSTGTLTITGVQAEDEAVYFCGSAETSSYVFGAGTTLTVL
2.08

meta.source: patent US20180044434A1
